B1: Peroxisome proliferator-activated receptor delta, residues 71 to 145; numbered along this chain, Q03181 (parent)
chain: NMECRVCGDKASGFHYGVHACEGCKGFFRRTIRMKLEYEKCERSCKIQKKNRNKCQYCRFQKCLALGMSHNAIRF

variants of: B1; test: abundance fitness (aPCA) (normalised: wild type 0, dead -1); higher = more abundant; growth selection in yeast, the domain comes from the species named; conditions: Homo sapiens
Is abundance fitness at least -0.2? Then Y. If not, N.

Consider the worked cases shown below.
{"Variant string": "H15S", "Assigned category": "Y"}
{"Variant string": "R30H", "Assigned category": "Y"}
{"Variant string": "I47N", "Assigned category": "N"}
{"Variant string": "L64Q", "Assigned category": "Y"}
{"Variant string": "V6Q", "Assigned category": "N"}
{"Variant string": "C55M", "Assigned category": "N"}

q: abundance fitness >= -0.2 for C63L ?
a: N

q: abundance fitness >= -0.2 for C63I ?
a: N

q: abundance fitness >= -0.2 for E39L ?
a: N

q: abundance fitness >= -0.2 for A11T ?
a: Y

q: abundance fitness >= -0.2 for S12A ?
a: Y

q: abundance fitness >= -0.2 for Y38C ?
a: N

q: abundance fitness >= -0.2 for E3K ?
a: Y
